System: Mycobacterium leprae
assayMethodText: Anti-leprotic activity against Mycobacterium leprae assessed as maximum bactericidal dilutions
Assay type: functional
recordedEndpoint: fold change (FC)

Reference set, count: 4
[[record]]
molecule = "CCCCCCCCCCC(C(=O)O)C1CCCC1 (centres undefined)"
measured = 143

[[record]]
molecule = "CCCCCCCCC(CCC1CCCCC1)C(=O)O (centres undefined)"
measured = 220

[[record]]
molecule = "CCCCCCC(CCC1CCCCC1)C(=O)O (centres undefined)"
measured = 125

[[record]]
molecule = "CCCCCCCCCCC(C(=O)O)C1CCCCC1 (centres undefined)"
measured = 180


# ---- query molecule ----
# lookup: fold change (FC) of CCCCCCCCCC(C(=O)O)C1CCCC1 (centres undefined)
111

====

Activity values for the molecules below.
Test system: Mycobacterium tuberculosis
assayMethodText: Antitubercular activity against Mycobacterium tuberculosis infected in mouse assessed as reduction in microbial load at 2 to 3 mg ip, pretreated for 48 to 72 hrs followed by microbial infection and subsequent compound dosing at 48 to 72 hrs post-infection measured 24 to 32 days post-infection relative to control
Format: functional
Parameters: scale not given: the % may be the effect or the level left

[[record]]
smilesrepresentation = "CC(C)(C)c1cc2c(O)c(c1)Cc1cc(C(C)(C)C)cc(c1OCCOCCOCCOCCOCCOCCOCCOCCOCCOCCOCCOCCO)Cc1cc(C(C)(C)C)cc(c1O)Cc1cc(C(C)(C)C)cc(c1OCCOCCOCCOCCOCCOCCOCCOCCOCCOCCOCCOCCO)Cc1cc(C(C)(C)C)cc(c1O)Cc1cc(C(C)(C)C)cc(c1OCCOCCOCCOCCOCCOCCOCCOCCOCCOCCOCCOCCO)Cc1cc(C(C)(C)C)cc(c1O)Cc1cc(C(C)(C)C)cc(c1OCCOCCOCCOCCOCCOCCOCCOCCOCCOCCOCCOCCO)C2"
recordedendpoint = "Activity"
measured = "20 - 50%"


# lookup: Activity of `CC(C)(C)c1cc2c(OCCOCCOCCOCCOCCOCCO)c(c1)Cc1cc(C(C)(C)C)cc(c1OCCOCCOCCOCCOCCOCCO)Cc1cc(C(C)(C)C)cc(c1OCCOCCOCCOCCOCCOCCO)Cc1cc(C(C)(C)C)cc(c1OCCOCCOCCOCCOCCOCCO)Cc1cc(C(C)(C)C)cc(c1OCCOCCOCCOCCOCCOCCO)Cc1cc(C(C)(C)C)cc(c1OCCOCCOCCOCCOCCOCCO)C2`
80 - 100%

# lookup: Activity of `CC(C)(C)c1cc2c(O)c(c1)Cc1cc(C(C)(C)C)cc(c1O)Cc1cc(C(C)(C)C)cc(c1O)Cc1cc(C(C)(C)C)cc(c1O)Cc1cc(C(C)(C)C)cc(c1O)Cc1cc(C(C)(C)C)cc(c1O)Cc1cc(C(C)(C)C)cc(c1O)Cc1cc(C(C)(C)C)cc(c1O)C2`
20 - 50%

====

Test system: Mycobacterium leprae
assayMethodText: Anti-leprotic activity against rifampicin-susceptible Mycobacterium leprae subcultures at 4 weeks assessed as [3H]thymidine uptake per 5 times 10^7 cells at 0.2 mg/L incubated for 24 hrs (reference value: 1.41 +/- 0.20 pmol)
Type: functional
Activity values for the compounds below.
// units = pmol; emit number, no label

Reference set, count: 2
[[record]]
compound = "CCC(C)N1CCN(c2cc(O)c3nc4c5c6c7c(C)c(O)c5c(=O)c(c-4oc3c2)NC(=O)/C(C)=C\\C=C\\[C@H](C)[C@H](O)[C@@H](C)[C@@H](O)[C@@H](C)[C@H](OC(C)=O)[C@H](C)[C@@H](OC)/C=C/O[C@@](C)(O7)C6=O)CC1 (stereo in doubt; form 2)"
unitsymbol = "pmol"
measured = 0

[[record]]
compound = "CO[C@H]1/C=C/O[C@@]2(C)Oc3c(C)c(O)c4c(c3C2=O)C2=NC3(CCN(CC(C)C)CC3)NC2=C(NC(=O)/C(C)=C\\C=C\\[C@H](C)[C@H](O)[C@@H](C)[C@@H](O)[C@@H](C)[C@H](OC(C)=O)[C@@H]1C)C4=O [RIFABUTIN]"
unitsymbol = "pmol"
measured = 0.49


# lookup: Activity of `CCCN1CCN(c2cc(O)c3nc4c5c6c7c(C)c(O)c5c(=O)c(c-4oc3c2)NC(=O)/C(C)=C\C=C\[C@H](C)[C@H](O)[C@@H](C)[C@@H](O)[C@@H](C)[C@H](OC(C)=O)[C@H](C)[C@@H](OC)/C=C/O[C@@](C)(O7)C6=O)CC1`
1.3

# lookup: Activity of CO[C@H]1/C=C/O[C@@]2(C)Oc3c(C)c(O)c4c(O)c(c(/C=N/N5CCN(C)CC5)c(O)c4c3C2=O)NC(=O)/C(C)=C\C=C\[C@H](C)[C@H](O)[C@@H](C)[C@@H](O)[C@@H](C)[C@H](OC(C)=O)[C@@H]1C [RIFAMPIN]
0

# lookup: Activity of CCC(C)N1CCN(c2cc(O)c3nc4c5c6c7c(C)c(O)c5c(=O)c(c-4oc3c2)NC(=O)/C(C)=C\C=C\[C@H](C)[C@H](O)[C@@H](C)[C@@H](O)[C@@H](C)[C@H](OC(C)=O)[C@H](C)[C@@H](OC)/C=C/O[C@@](C)(O7)C6=O)CC1 (stereo in doubt; form 1)
1.18

# lookup: Activity of CO[C@H]1/C=C/O[C@@]2(C)Oc3c(C)c(O)c4c(=O)c(c5oc6cc(N7CCN(CC(C)C)CC7)cc(O)c6nc-5c4c3C2=O)NC(=O)/C(C)=C\C=C\[C@H](C)[C@H](O)[C@@H](C)[C@@H](O)[C@@H](C)[C@H](OC(C)=O)[C@@H]1C [RIFALAZIL]
0

====

System: Mycobacterium tuberculosis
assayMethodText: Antitubercular activity against Mycobacterium tuberculosis infected in mouse assessed as reduction in microbial load at 2 to 3 mg ip, pretreated for 48 to 72 hrs followed by microbial infection and subsequent compound dosing at 48 to 72 hrs post-infection measured 24 to 32 days post-infection relative to control
Assay type: functional
Design: scale not given: the % may be the effect or the level left
recordedEndpoint: Activity

Reference set, count: 2
[[record]]
smilesrepresentation = "O=S(=O)(O)c1cc2c(O)c(c1)Cc1cc(S(=O)(=O)O)cc(c1O)Cc1cc(S(=O)(=O)O)cc(c1O)Cc1cc(S(=O)(=O)O)cc(c1O)Cc1cc(S(=O)(=O)O)cc(c1O)Cc1cc(S(=O)(=O)O)cc(c1O)Cc1cc(S(=O)(=O)O)cc(c1O)Cc1cc(S(=O)(=O)O)cc(c1O)C2"
assayedsystem = "Mycobacterium tuberculosis"
measured = "50 - 80%"

[[record]]
smilesrepresentation = "Oc1c2cc(-c3ccccc3)cc1Cc1cc(-c3ccccc3)cc(c1O)Cc1cc(-c3ccccc3)cc(c1O)Cc1cc(-c3ccccc3)cc(c1O)Cc1cc(-c3ccccc3)cc(c1O)Cc1cc(-c3ccccc3)cc(c1O)Cc1cc(-c3ccccc3)cc(c1O)Cc1cc(-c3ccccc3)cc(c1O)C2"
assayedsystem = "Mycobacterium tuberculosis"
measured = "20 - 50%"


# ---- query compound ----
# lookup: Activity of `CC(C)(C)CC(C)(C)c1cc2c(O)c(c1)Cc1cc(C(C)(C)CC(C)(C)C)cc(c1OCCOCCOCCOCCOCCOCCO)Cc1cc(C(C)(C)CC(C)(C)C)cc(c1O)Cc1cc(C(C)(C)CC(C)(C)C)cc(c1OCCOCCOCCOCCOCCOCCO)Cc1cc(C(C)(C)CC(C)(C)C)cc(c1O)Cc1cc(C(C)(C)CC(C)(C)C)cc(c1OCCOCCOCCOCCOCCOCCO)Cc1cc(C(C)(C)CC(C)(C)C)cc(c1O)Cc1cc(C(C)(C)CC(C)(C)C)cc(c1OCCOCCOCCOCCOCCOCCO)C2`
20 - 50%

====

Tested on: Mycobacterium tuberculosis
assayMethodText: Antitubercular activity against Mycobacterium tuberculosis infected in mouse assessed as reduction in microbial load at 2 to 3 mg ip, pretreated for 48 to 72 hrs followed by microbial infection and subsequent compound dosing at 48 to 72 hrs post-infection measured 24 to 32 days post-infection relative to control
Format: functional
Set-up: scale not given: the % may be the effect or the level left
recordedEndpoint: Activity

# lookup: Activity of `CC(C)(C)c1cc2c(O)c(c1)Cc1cc(C(C)(C)C)cc(c1OCCOCCOCCOCCOCCOCCO)Cc1cc(C(C)(C)C)cc(c1O)Cc1cc(C(C)(C)C)cc(c1OCCOCCOCCOCCOCCOCCO)Cc1cc(C(C)(C)C)cc(c1O)Cc1cc(C(C)(C)C)cc(c1OCCOCCOCCOCCOCCOCCO)Cc1cc(C(C)(C)C)cc(c1O)Cc1cc(C(C)(C)C)cc(c1OCCOCCOCCOCCOCCOCCO)C2`
20 - 50%

# lookup: Activity of `OCCOCCOCCOCCOCCOCCOc1c2cc(-c3ccccc3)cc1Cc1cc(-c3ccccc3)cc(c1OCCOCCOCCOCCOCCOCCO)Cc1cc(-c3ccccc3)cc(c1OCCOCCOCCOCCOCCOCCO)Cc1cc(-c3ccccc3)cc(c1OCCOCCOCCOCCOCCOCCO)Cc1cc(-c3ccccc3)cc(c1OCCOCCOCCOCCOCCOCCO)Cc1cc(-c3ccccc3)cc(c1OCCOCCOCCOCCOCCOCCO)Cc1cc(-c3ccccc3)cc(c1OCCOCCOCCOCCOCCOCCO)C2`
20 - 50%

# lookup: Activity of `Oc1c2cc(-c3ccccc3)cc1Cc1cc(-c3ccccc3)cc(c1O)Cc1cc(-c3ccccc3)cc(c1O)Cc1cc(-c3ccccc3)cc(c1O)Cc1cc(-c3ccccc3)cc(c1O)Cc1cc(-c3ccccc3)cc(c1O)Cc1cc(-c3ccccc3)cc(c1O)C2`
20 - 50%

# lookup: Activity of `COCCOCCOCCOc1c2cc(C(C)(C)C)cc1Cc1cc(C(C)(C)C)cc(c1OCCOCCOCCOC)Cc1cc(C(C)(C)C)cc(c1OCCOCCOCCOC)Cc1cc(C(C)(C)C)cc(c1OCCOCCOCCOC)Cc1cc(C(C)(C)C)cc(c1OCCOCCOCCOC)Cc1cc(C(C)(C)C)cc(c1OCCOCCOCCOC)Cc1cc(C(C)(C)C)cc(c1OCCOCCOCCOC)Cc1cc(C(C)(C)C)cc(c1OCCOCCOCCOC)C2`
80 - 100%

# lookup: Activity of `CC(C)(C)c1cc2c(O)c(c1)Cc1cc(C(C)(C)C)cc(c1OCCOCCOCCOCCOCCOCCO)Cc1cc(C(C)(C)C)cc(c1O)Cc1cc(C(C)(C)C)cc(c1OCCOCCOCCOCCOCCOCCO)Cc1cc(C(C)(C)C)cc(c1O)Cc1cc(C(C)(C)C)cc(c1OCCOCCOCCOCCOCCOCCO)C2`
20 - 50%

# lookup: Activity of `CC(C)(C)c1cc2c(OCCOCCOCCOCCOCCOCCO)c(c1)Cc1cc(C(C)(C)C)cc(c1OCCOCCOCCOCCOCCOCCO)Cc1cc(C(C)(C)C)cc(c1OCCOCCOCCOCCOCCOCCO)Cc1cc(C(C)(C)C)cc(c1OCCOCCOCCOCCOCCOCCO)Cc1cc(C(C)(C)C)cc(c1OCCOCCOCCOCCOCCOCCO)Cc1cc(C(C)(C)C)cc(c1OCCOCCOCCOCCOCCOCCO)Cc1cc(C(C)(C)C)cc(c1OCCOCCOCCOCCOCCOCCO)Cc1cc(C(C)(C)C)cc(c1OCCOCCOCCOCCOCCOCCO)C2`
80 - 100%
